target: USP7asoc (active site only cysteine) (Homo sapiens, UniProt Q93009, C300S/C315S/C334S/C478S/C488S/C510S); construct: (208‐560, C300/315/334/448/478/510S); made in house; experiment: Differential scanning fluorimetry (DSF), melting temperature shift of USP7asoc mutant; type: binding; details: 8 µM protein, 250 µM compound (1:31.25), 24 h incubation at 20°C
measured.attribute: ∆T m ± SD USP7asoc (°C)

>>> recorded_result("CCn1cc(-c2cccc3cnc(Nc4nc(Cl)ccc4[N+](=O)[O-])cc23)cn1")
0.33
>>> recorded_result("O=[N+]([O-])c1ccc(Cl)nc1Nc1cc2c(-c3ccc4ccccc4c3)cccc2cn1")
0.40
>>> recorded_result("Cn1ccc(-c2cccc3cnc(Nc4nc(Cl)ccc4[N+](=O)[O-])cc23)c1")
0.45
>>> recorded_result("CCCn1cc(-c2cccc3cnc(Nc4nc(Cl)ccc4[N+](=O)[O-])cc23)cn1")
0.42
>>> recorded_result("O=[N+]([O-])c1ccc(F)nc1Nc1cc2c(-c3ccc4ccccc4c3)cccc2cn1")
0.38
>>> recorded_result("O=[N+]([O-])c1ccc(F)nc1Nc1cc2c(-c3ccc(-c4cccnc4)cc3)cccc2cn1")
0.35

[P] Cn1ccc(-c2cccc3cnc(Nc4nc(F)ccc4[N+](=O)[O-])cc23)c1
[Q] Cn1cc(-c2cccc3cnc(Nc4nc(Cl)ccc4[N+](=O)[O-])cc23)cn1
[R] O=[N+]([O-])c1ccc(F)nc1Nc1cc2c(-c3ccc(-c4ccncc4)cc3)cccc2cn1
Input: List items by ∆T m ± SD USP7asoc in falling order. A complete answer lists every label in the requested sequence.
Output: P, Q, R
(P: 0.38 °C, Q: 0.10 °C, R: 0.05 °C)

====

molecular target: USP7cd (USP7 catalytic domain) (Homo sapiens, UniProt Q93009); construct: USP7 catalytic domain (USP7CD) (208‐560); made in house; test: Ub-AMC enzyme activity assay, IC50 determination; format: biochemical; conditions: supplement table; 10 nM USP7cd, 500 nM Ub-AMC, 24 h pre-incubation at 20°C; read-out: Biological Activity (IC50)
Sequence (Q93009 with tags, fused parts or gaps): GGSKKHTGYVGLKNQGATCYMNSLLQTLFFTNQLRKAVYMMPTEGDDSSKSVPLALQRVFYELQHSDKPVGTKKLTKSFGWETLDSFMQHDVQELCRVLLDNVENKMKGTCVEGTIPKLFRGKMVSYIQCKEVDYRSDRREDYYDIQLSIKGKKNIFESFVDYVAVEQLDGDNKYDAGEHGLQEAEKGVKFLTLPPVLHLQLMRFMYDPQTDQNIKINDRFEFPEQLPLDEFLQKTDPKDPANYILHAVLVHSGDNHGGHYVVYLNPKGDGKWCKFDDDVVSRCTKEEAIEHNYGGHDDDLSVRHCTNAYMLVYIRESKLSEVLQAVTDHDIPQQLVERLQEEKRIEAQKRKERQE
measured.attribute: IC50 (µM)

Here's what some known entries look like.
>>> recorded_result("CCn1cc(-c2cccc3cnc(Nc4nc(F)ccc4[N+](=O)[O-])cc23)cn1")
36.2
>>> recorded_result("Cn1ccc(-c2cccc3cnc(Nc4nc(F)ccc4[N+](=O)[O-])cc23)c1")
56.6
>>> recorded_result("O=[N+]([O-])c1ccc(F)nc1Nc1cc2c(-c3cnn(C4CC4)c3)cccc2cn1")
48.3

[a] Cn1cc(-c2cccc3cnc(Nc4nc(F)ccc4[N+](=O)[O-])cc23)cn1
[b] CCCn1cc(-c2cccc3cnc(Nc4nc(F)ccc4[N+](=O)[O-])cc23)cn1
Input: Given the listed items, does a or b have the lesser reported IC50? Respond using the label that marks the chosen record.
Output: b
(b: 26.8 µM, a: 48.2 µM)

====

target: USP7 (Homo sapiens); construct: USP7 catalytic domain (USP7CD) (208‐560); made in house; assay: Differential scanning fluorimetry (DSF), melting temperature shift of USP7; assay type: binding; details: 8 µM protein, 250 µM compound (1:31.25), 30 min incubation at 20°C
Sequence (Q93009 with tags, fused parts or gaps): as above
measured.attribute: ∆T m ± SD USP7 (°C)

Sample answers from the record:
>>> recorded_result("O=[N+]([O-])c1ccc(F)nc1Nc1cc2c(-c3ccc(-c4cccnc4)cc3)cccc2cn1")
0.00
>>> recorded_result("O=[N+]([O-])c1ccc(F)nc1Nc1cc2c(-c3ccc4ccccc4c3)cccc2cn1")
0.10
>>> recorded_result("O=[N+]([O-])c1ccc(Cl)nc1Nc1cc2c(-c3ccc4ccccc4c3)cccc2cn1")
0.25

[I] Cn1cc(-c2cccc3cnc(Nc4nc(Cl)ccc4[N+](=O)[O-])cc23)cn1
[II] O=[N+]([O-])c1ccc(F)nc1Nc1cc2c(-c3cnn(CCO)c3)cccc2cn1
[III] O=[N+]([O-])c1ccc(Cl)nc1Nc1cc2c(-c3ccc(-c4ccncc4)cc3)cccc2cn1
Input: Number of compounds to sort: 3. Sort criterion: ∆T m ± SD USP7, ascending. Give your ranking as a list of the labels in the requested order.
Output: II, III, I
(II: 0.00 °C, III: 0.05 °C, I: 0.20 °C)
